Values compiled from the nanobody polyreactivity screen of Harvey et al. (2022).

Assay: yeast display, Sf9 membrane polyspecificity reagent, FACS + sequencing; frameworks hold sequencing errors
observable: polyreactivity (PSR sort gate)

• QVQLVESGVGLVQAGGSRRLSCAASGRTFFDNVMGWYRQAPGKERELVAAIRSAGTTYYADSVKGRFTISRDNAKNTVYLQMNRLKPEDTAVYYCAATNRYYWSYFYQAKYGYWGQGTQVTVSS = low polyreactivity
• QVQLVESGGGLVQAGGSLRLSCAASGLTFSPYAKGWYRQAPGKERELVASITNGGRTYYADSVKGRFTISRDNAKNTVYLQMNSLKPEDTAVYYCNAAYFGWFNTYNYWGQGTQVTVSS = high polyreactivity
• QVQLQESGGGLVQAGGSLRLSCAASGTIFYKDDMGWYRQAPGKEREFVAGIDRGGTTNCAGSVKGRFTISRDNAKNTVYLQMISLKPEDTAVYYCAAYYPDIYPFIYRGQGTQVTVSS = high polyreactivity
• QVQLVESGGGLVQAGGSLRLSCAASGFIFSRNAMGWYRQAPGKERELVARISRSGGRTYYADSVKGRFTISRDNAKNTVYLLMNSLKPEDTAVYYCATDHVRQSPYDYWGQGTQVTVSS = high polyreactivity

Input line: Consider the sequence `QVQLVESGGGLVQAGGSLRLSCAASGLTFTYYAMGWNRQAPGKQRELVAAISSSGSDTYYADSVKGRFTISRDNAKNTVYLLMNSLKPEDTAVYYCAAVLTALSPDFEYEYWGQGTQVTVSS` and give its measured polyreactivity (PSR sort gate).
Output line: low polyreactivity
